meta.source: patent US20230129812A1

Each entry below lists one item and its recorded koff value.
Target: T1, GDF8 (UniProt O14793 267-375)
T1 construct: also called myostatin
T1 sequence (looked up): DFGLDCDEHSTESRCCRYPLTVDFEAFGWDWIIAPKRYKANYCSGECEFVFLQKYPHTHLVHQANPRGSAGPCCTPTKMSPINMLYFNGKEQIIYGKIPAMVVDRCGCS
Experiment: SPR (Biacore); receptor-Fc captured by anti-hFc antibody, ligand injected
Method: Binding of certain ActRIIB-Fc proteins and ActRIIB variant Fc fusion polypeptides to ligands was tested in a Biacore™ assay. The ActRIIB-Fc variants or wild-type protein were captured onto the system using an anti-hFc antibody. Ligands were injected and flowed over the captured receptor proteins.
# number only, unit s⁻¹ dropped from output

Example binders with recorded koff:
binder	measure	observedResult
ActRIIB(K74A 20-134)-hFc (Fc fusion) GRGEAETRECIYYNANWELERTNQSGLERCEGEQDKRLHCYASWRNSSGTIELVAKGCWLDDFNCYDRQECVATEENPQVYFCCCEGNFCNERFTHLPEAGGPEVTYEPPPTAPTGGGTHTCPPCPAPELLGGPSVFLFPPKPKDTLMISRTPEVTCVVVDVSHEDPEVKFNWYVDGVEVHNAKTKPREEQYNSTYRVVSVLTVLHQDWLNGKEYKCKVSNKALPVPIEKTISKAKGQPREPQVYTLPPSREEMTKNQVSLTCLVKGFYPSDIAVEWESNGQPENNYKTTPPVLDSDGSFFLYSKLTVDKSRWQQGNVFSCSVMHEALHNHYTQKSLSLSPGK	koff	2.03e-05
ActRIIB(L79E 20-134)-hFc (Fc fusion) GRGEAETRECIYYNANWELERTNQSGLERCEGEQDKRLHCYASWRNSSGTIELVKKGCWEDDFNCYDRQECVATEENPQVYFCCCEGNFCNERFTHLPEAGGPEVTYEPPPTAPTGGGTHTCPPCPAPELLGGPSVFLFPPKPKDTLMISRTPEVTCVVVDVSHEDPEVKFNWYVDGVEVHNAKTKPREEQYNSTYRVVSVLTVLHQDWLNGKEYKCKVSNKALPVPIEKTISKAKGQPREPQVYTLPPSREEMTKNQVSLTCLVKGFYPSDIAVEWESNGQPENNYKTTPPVLDSDGSFFLYSKLTVDKSRWQQGNVFSCSVMHEALHNHYTQKSLSLSPGK	koff	0.0009

Exam item: Quick one: koff for ActRIIB(20-134)-hFc (Fc fusion, also called ActRIIB-hFc) GRGEAETRECIYYNANWELERTNQSGLERCEGEQDKRLHCYASWRNSSGTIELVKKGCWLDDFNCYDRQECVATEENPQVYFCCCEGNFCNERFTHLPEAGGPEVTYEPPPTAPTGGGTHTCPPCPAPELLGGPSVFLFPPKPKDTLMISRTPEVTCVVVDVSHEDPEVKFNWYVDGVEVHNAKTKPREEQYNSTYRVVSVLTVLHQDWLNGKEYKCKVSNKALPVPIEKTISKAKGQPREPQVYTLPPSREEMTKNQVSLTCLVKGFYPSDIAVEWESNGQPENNYKTTPPVLDSDGSFFLYSKLTVDKSRWQQGNVFSCSVMHEALHNHYTQKSLSLSPGK ?
Marked response: 3.45e-05

Exam item: Any idea what koff was measured for ActRIIB(R64K 20-129)-hFc (Fc fusion) GRGEAETRECIYYNANWELERTNQSGLERCEGEQDKRLHCYASWKNSSGTIELVKKGCWLDDFNCYDRQECVATEENPQVYFCCCEGNFCNERFTHLPEAGGPEVTYEPPGGGTHTCPPCPAPELLGGPSVFLFPPKPKDTLMISRTPEVTCVVVDVSHEDPEVKFNWYVDGVEVHNAKTKPREEQYNSTYRVVSVLTVLHQDWLNGKEYKCKVSNKALPVPIEKTISKAKGQPREPQVYTLPPSREEMTKNQVSLTCLVKGFYPSDIAVEWESNGQPENNYKTTPPVLDSDGSFFLYSKLTVDKSRWQQGNVFSCSVMHEALHNHYTQKSLSLSPGK ?
Marked response: 0.000209
